The values you see were collected from PubChem BioAssay AID2060333.

Parameter pIC50: see the listing below.
System: 845751-090-R-J2-PDC tumor spheroid viability
TEST_METHOD_NOTES: Anticancer human tumor 845751-090-R-J2-PDC patient-derived head and neck squamous carcinoma cell line growth inhibition [IpAb]
TEST_SETTINGS: curve of first compound; second compound 0.0316 µM; spheroids with HUVEC and MSC
pIC50: −log10 of the molar value.

COMPOUND: Cn1ncnc1[C@H]1c2n[nH]c(=O)c3cc(F)cc(c23)N[C@@H]1c1ccc(F)cc1 + CCN1CCN(Cc2ccc(Nc3ncc(F)c(-c4cc(F)c5nc(C)n(C(C)C)c5c4)n3)nc2)CC1
COMPARATIVE_SIGN: =
pIC50: 7.14

COMPOUND: C=CC(=O)N1CCN(c2nc(=O)n(-c3c(C)ccnc3C(C)C)c3nc(-c4c(O)cccc4F)c(F)cc23)C(C)C1 (stereo not drawn) + CCN1CCN(Cc2ccc(Nc3ncc(F)c(-c4cc(F)c5nc(C)n(C(C)C)c5c4)n3)nc2)CC1
COMPARATIVE_SIGN: =
pIC50: 5.65

COMPOUND: COc1c(OCCCN2CCOCC2)ccc2c3n(c(=NC(=O)c4cnc(N)nc4)nc12)CCN3 + CCN1CCN(Cc2ccc(Nc3ncc(F)c(-c4cc(F)c5nc(C)n(C(C)C)c5c4)n3)nc2)CC1
COMPARATIVE_SIGN: =
pIC50: 8.30

COMPOUND: CCCS(=O)(=O)Nc1ccc(F)c(C(=O)c2c[nH]c3ncc(-c4ccc(Cl)cc4)cc23)c1F + CCN1CCN(Cc2ccc(Nc3ncc(F)c(-c4cc(F)c5nc(C)n(C(C)C)c5c4)n3)nc2)CC1
COMPARATIVE_SIGN: =
pIC50: 6.17

COMPOUND: Cn1nccc1Nc1nccc(-c2ccn(C(CO)c3ccc(Cl)c(F)c3)c(=O)c2)n1 (stereo not drawn) + CCN1CCN(Cc2ccc(Nc3ncc(F)c(-c4cc(F)c5nc(C)n(C(C)C)c5c4)n3)nc2)CC1
COMPARATIVE_SIGN: <
pIC50: 5.00

COMPOUND: Cn1ncc(Cl)c1-c1cc(C(=O)NC(CN)Cc2cccc(F)c2)sc1Cl (stereo not drawn) + CCN1CCN(Cc2ccc(Nc3ncc(F)c(-c4cc(F)c5nc(C)n(C(C)C)c5c4)n3)nc2)CC1
COMPARATIVE_SIGN: =
pIC50: 7.02

COMPOUND: C=CCn1c(=O)c2cnc(Nc3ccc(N4CCN(C)CC4)cc3)nc2n1-c1cccc(C(C)(C)O)n1 + CCN1CCN(Cc2ccc(Nc3ncc(F)c(-c4cc(F)c5nc(C)n(C(C)C)c5c4)n3)nc2)CC1
COMPARATIVE_SIGN: =
pIC50: 5.38

COMPOUND: CC(C)(C)c1cnc(CSc2cnc(NC(=O)C3CCNCC3)s2)o1 + CCN1CCN(Cc2ccc(Nc3ncc(F)c(-c4cc(F)c5nc(C)n(C(C)C)c5c4)n3)nc2)CC1
COMPARATIVE_SIGN: =
pIC50: 7.15

====

Test system: 845751-090-R-J2-PDC tumor spheroid viability
TEST_METHOD_NOTES: Anticancer human tumor 845751-090-R-J2-PDC cell line growth inhibition [IpAb];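 also: spheroids exposed to compounds for 7 days before readout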;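 as to viability, T/C: CTG3D luminescence normalised so that 100% = DMSO vehicle control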
TEST_SETTINGS: second compound 0.1 µM; first compound 10 µM; stronger effect = lower value; spheroids with HUVEC and MSC
Parameter viability, T/C: see the listing below.
PROPERTY_MEASURED: viability, T/C (%)

COMPOUND: Cc1nc(NC(=O)N2CCCC2C(N)=O)sc1-c1ccnc(C(C)(C)C(F)(F)F)c1 (stereo not drawn) + CCN1CCN(Cc2ccc(Nc3ncc(F)c(-c4cc(F)c5nc(C)n(C(C)C)c5c4)n3)nc2)CC1
STUDY_SYSTEM: 845751-090-R-J2-PDC tumor spheroid viability
PROPERTY_MEASURED: viability, T/C
OBSERVED_MEASUREMENT: 10.1
//
COMPOUND: Cn1nccc1Nc1nccc(-c2ccn(C(CO)c3ccc(Cl)c(F)c3)c(=O)c2)n1 (stereo not drawn) + CC(C)NCC(C(=O)N1CCN(c2ncnc3c2C(C)CC3O)CC1)c1ccc(Cl)cc1
STUDY_SYSTEM: 845751-090-R-J2-PDC tumor spheroid viability
PROPERTY_MEASURED: viability, T/C
OBSERVED_MEASUREMENT: 35.8
//
COMPOUND: C=CCn1c(=O)c2cnc(Nc3ccc(N4CCN(C)CC4)cc3)nc2n1-c1cccc(C(C)(C)O)n1 + CC(C)NCC(C(=O)N1CCN(c2ncnc3c2C(C)CC3O)CC1)c1ccc(Cl)cc1
STUDY_SYSTEM: 845751-090-R-J2-PDC tumor spheroid viability
PROPERTY_MEASURED: viability, T/C
OBSERVED_MEASUREMENT: 56.6

====

Tested on: 845751-090-R-J2-PDC tumor spheroid viability
TEST_METHOD_NOTES: Anticancer human tumor 845751-090-R-J2-PDC cell line growth inhibition [IpAb];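 also: spheroids exposed to compounds for 7 days before readout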;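 as to viability, T/C: CTG3D luminescence normalised so that 100% = DMSO vehicle control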
TEST_SETTINGS: second compound 0.1 µM; first compound 3.16 µM; stronger effect = lower value; spheroids with HUVEC and MSC
Parameter viability, T/C: see the listing below.
PROPERTY_MEASURED: viability, T/C (%)

COMPOUND: C=CCn1c(=O)c2cnc(Nc3ccc(N4CCN(C)CC4)cc3)nc2n1-c1cccc(C(C)(C)O)n1 + CCN1CCN(Cc2ccc(Nc3ncc(F)c(-c4cc(F)c5nc(C)n(C(C)C)c5c4)n3)nc2)CC1
UNITS: %
OBSERVED_MEASUREMENT: 50.5
--
COMPOUND: CCCS(=O)(=O)Nc1ccc(F)c(C(=O)c2c[nH]c3ncc(-c4ccc(Cl)cc4)cc23)c1F + CC(C)NCC(C(=O)N1CCN(c2ncnc3c2C(C)CC3O)CC1)c1ccc(Cl)cc1
UNITS: %
OBSERVED_MEASUREMENT: 49
--
COMPOUND: Cc1nc(NC(=O)N2CCCC2C(N)=O)sc1-c1ccnc(C(C)(C)C(F)(F)F)c1 (stereo not drawn) + CC(C)NCC(C(=O)N1CCN(c2ncnc3c2C(C)CC3O)CC1)c1ccc(Cl)cc1
UNITS: %
OBSERVED_MEASUREMENT: 15.5

====

Tested on: 845751-090-R-J2-PDC tumor spheroid viability
TEST_METHOD_NOTES: Anticancer human tumor 845751-090-R-J2-PDC cell line growth inhibition [IpAb];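 also: spheroids exposed to compounds for 7 days before readout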;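 as to viability, T/C: CTG3D luminescence normalised so that 100% = DMSO vehicle control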
TEST_SETTINGS: second compound 0.01 µM; first compound 1 µM; stronger effect = lower value; spheroids with HUVEC and MSC

COMPOUND: Cn1nccc1Nc1nccc(-c2ccn(C(CO)c3ccc(Cl)c(F)c3)c(=O)c2)n1 (stereo not drawn) + CCN1CCN(Cc2ccc(Nc3ncc(F)c(-c4cc(F)c5nc(C)n(C(C)C)c5c4)n3)nc2)CC1
viability, T/C: 227%

COMPOUND: C=CC(=O)N1CCN(c2nc(=O)n(-c3c(C)ccnc3C(C)C)c3nc(-c4c(O)cccc4F)c(F)cc23)C(C)C1 (stereo not drawn) + CCN1CCN(Cc2ccc(Nc3ncc(F)c(-c4cc(F)c5nc(C)n(C(C)C)c5c4)n3)nc2)CC1
viability, T/C: 82.3%

COMPOUND: Cc1nc(NC(=O)N2CCCC2C(N)=O)sc1-c1ccnc(C(C)(C)C(F)(F)F)c1 (stereo not drawn) + CCN1CCN(Cc2ccc(Nc3ncc(F)c(-c4cc(F)c5nc(C)n(C(C)C)c5c4)n3)nc2)CC1
viability, T/C: 28.9%

====

Parameter viability, T/C: see the listing below.
Tested on: 845751-090-R-J2-PDC tumor spheroid viability
TEST_METHOD_NOTES: Anticancer human tumor 845751-090-R-J2-PDC cell line growth inhibition [IpAb];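 also: spheroids exposed to compounds for 7 days before readout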;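 as to viability, T/C: CTG3D luminescence normalised so that 100% = DMSO vehicle control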
TEST_SETTINGS: second compound 10 µM; first compound 1 µM; stronger effect = lower value; spheroids with HUVEC and MSC

MOLECULE: COc1c(OCCCN2CCOCC2)ccc2c3n(c(=NC(=O)c4cnc(N)nc4)nc12)CCN3 + CC(C)NCC(C(=O)N1CCN(c2ncnc3c2C(C)CC3O)CC1)c1ccc(Cl)cc1
viability, T/C [%]: 1.62
//
MOLECULE: Cn1nccc1Nc1nccc(-c2ccn(C(CO)c3ccc(Cl)c(F)c3)c(=O)c2)n1 (stereo not drawn) + CC(C)NCC(C(=O)N1CCN(c2ncnc3c2C(C)CC3O)CC1)c1ccc(Cl)cc1
viability, T/C [%]: 5.42
//
MOLECULE: C=CCn1c(=O)c2cnc(Nc3ccc(N4CCN(C)CC4)cc3)nc2n1-c1cccc(C(C)(C)O)n1 + CC(C)NCC(C(=O)N1CCN(c2ncnc3c2C(C)CC3O)CC1)c1ccc(Cl)cc1
viability, T/C [%]: 14

====

Parameter viability, T/C: see the listing below.
Tested on: 845751-090-R-J2-PDC tumor spheroid viability
TEST_METHOD_NOTES: Anticancer human tumor 845751-090-R-J2-PDC cell line growth inhibition [IpAb];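 also: spheroids exposed to compounds for 7 days before readout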;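 as to viability, T/C: CTG3D luminescence normalised so that 100% = DMSO vehicle control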
TEST_SETTINGS: second compound 3.16 µM; first compound 1 µM; stronger effect = lower value; spheroids with HUVEC and MSC
PROPERTY_MEASURED: viability, T/C (%)

MOLECULE: C=CC(=O)N1CCN(c2nc(=O)n(-c3c(C)ccnc3C(C)C)c3nc(-c4c(O)cccc4F)c(F)cc23)C(C)C1 (stereo not drawn) + CC(C)NCC(C(=O)N1CCN(c2ncnc3c2C(C)CC3O)CC1)c1ccc(Cl)cc1
OBSERVED_MEASUREMENT: 19.7
//
MOLECULE: C=CCn1c(=O)c2cnc(Nc3ccc(N4CCN(C)CC4)cc3)nc2n1-c1cccc(C(C)(C)O)n1 + CC(C)NCC(C(=O)N1CCN(c2ncnc3c2C(C)CC3O)CC1)c1ccc(Cl)cc1
OBSERVED_MEASUREMENT: 32.9
//
MOLECULE: CC1(C)CCC(CN2CCN(c3ccc(C(=O)NS(=O)(=O)c4ccc(NCC5CCOCC5)c([N+](=O)[O-])c4)c(Oc4cnc5[nH]ccc5c4)c3)CC2)=C(c2ccc(Cl)cc2)C1 + CC(C)NCC(C(=O)N1CCN(c2ncnc3c2C(C)CC3O)CC1)c1ccc(Cl)cc1
OBSERVED_MEASUREMENT: 29.5
